Assay: PK analysis of 8M2D in transgenic mice (APPSWE), plasma
Conditions: mouse, in vivo, sc, 250 mg/kg, Day 13, Mean over the 10, 50 and 250 mg/kg doses (N 3), read-out: Tmax, Mean
Square brackets hold non-standard residues; d marks the D form. Peptide text beside a SMILES is read from it.
measurement-kind: Tmax

// returns reported Tmax for input CC(=O)N[C@H](CC(=O)O)C(=O)N[C@@H](CCC(=O)O)C(=O)N[C@@H](CCC(=O)O)C(=O)N[C@@H](CCC(=O)O)C(=O)N[C@@H](CC(=O)O)C(=O)N[C@@H](CCC(=O)O)C(=O)N[C@@H](CCC(=O)O)C(=O)N[C@@H](CC(C)C)C(N)=O [8M2D, Ac-dEEEDEEL-NH2] (Ac-[dD]EEEDEEL-NH2)
10 min

Just for reference, patent US20220064214A1 is where these values come from.
